molecular target: T1, human Ror2 (human, UniProt Q01974 34-403, limits assumed); assay: ELISA, human Ror2, pH 6.0; further: unit not given here
T1 construct: also called hROR2; receptor tyrosine kinase-like orphan receptor 2
T1 sequence (Q01974 34-403 limits assumed): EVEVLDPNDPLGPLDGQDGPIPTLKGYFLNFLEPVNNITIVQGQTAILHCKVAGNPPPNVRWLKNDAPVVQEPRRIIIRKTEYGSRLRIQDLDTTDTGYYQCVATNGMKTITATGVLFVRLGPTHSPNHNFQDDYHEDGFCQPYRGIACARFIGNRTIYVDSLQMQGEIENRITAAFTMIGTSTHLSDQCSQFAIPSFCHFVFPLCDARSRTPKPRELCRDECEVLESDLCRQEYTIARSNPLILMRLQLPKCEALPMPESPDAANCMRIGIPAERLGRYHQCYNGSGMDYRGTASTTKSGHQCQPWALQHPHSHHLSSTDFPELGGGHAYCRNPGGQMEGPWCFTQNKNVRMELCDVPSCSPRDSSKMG
Reported Affinity ELISA pH 6.0 by item:

See these solved cases before continuing.
Binder	Recorded Endpoint	Meas Value
LC-S092D (antibody, V domains shown) VH: EVQLQQSGPELVKPGASVKISCKTSGYTFTEYTMHWMKQSHRKSLEWIGGINTNNGGTGYNQKFKGKATLTVDKSSSTAYMELRSLTSEDSAVYFCARGSLYSYGNSYFDYWGQGTLVTVSS VL: QIVLTQSPAIMSASPGEKVTITCSATSSVSYMHWFQQKPGTSPKLWIYGTSNLASGVPARFSGSGSGTSYSLTISRMEAEDAATYYCQQRSDYPFTFGQGTKVEIK	Affinity ELISA pH 6.0	1.13
LC-H033G (antibody, V domains shown) VH: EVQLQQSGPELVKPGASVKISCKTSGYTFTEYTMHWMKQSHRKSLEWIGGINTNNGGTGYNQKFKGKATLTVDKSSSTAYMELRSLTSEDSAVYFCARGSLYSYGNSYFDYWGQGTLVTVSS VL: QIVLTQSPAIMSASPGEKVTITCSATSSVSYMGWFQQKPGTSPKLWIYGTSNLASGVPARFSGSGSGTSYSLTISRMEAEDAATYYCQQRSSYPFTFGQGTKVEIK	Affinity ELISA pH 6.0	1.1

Asked: Give recorded Affinity ELISA pH 6.0. LC-H033L (antibody, V domains shown) VH: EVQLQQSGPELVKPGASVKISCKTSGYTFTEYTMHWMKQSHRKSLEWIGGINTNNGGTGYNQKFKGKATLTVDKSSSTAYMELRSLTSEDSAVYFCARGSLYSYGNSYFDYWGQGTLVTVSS VL: QIVLTQSPAIMSASPGEKVTITCSATSSVSYMLWFQQKPGTSPKLWIYGTSNLASGVPARFSGSGSGTSYSLTISRMEAEDAATYYCQQRSSYPFTFGQGTKVEIK
Given back: 0.69
